Overview of recorded residual activity for various compounds
target: Protein kinase C beta type (Homo sapiens) (UniProt P05771); details: at 10 µM
Sequence (P05771 2-671 limits assumed): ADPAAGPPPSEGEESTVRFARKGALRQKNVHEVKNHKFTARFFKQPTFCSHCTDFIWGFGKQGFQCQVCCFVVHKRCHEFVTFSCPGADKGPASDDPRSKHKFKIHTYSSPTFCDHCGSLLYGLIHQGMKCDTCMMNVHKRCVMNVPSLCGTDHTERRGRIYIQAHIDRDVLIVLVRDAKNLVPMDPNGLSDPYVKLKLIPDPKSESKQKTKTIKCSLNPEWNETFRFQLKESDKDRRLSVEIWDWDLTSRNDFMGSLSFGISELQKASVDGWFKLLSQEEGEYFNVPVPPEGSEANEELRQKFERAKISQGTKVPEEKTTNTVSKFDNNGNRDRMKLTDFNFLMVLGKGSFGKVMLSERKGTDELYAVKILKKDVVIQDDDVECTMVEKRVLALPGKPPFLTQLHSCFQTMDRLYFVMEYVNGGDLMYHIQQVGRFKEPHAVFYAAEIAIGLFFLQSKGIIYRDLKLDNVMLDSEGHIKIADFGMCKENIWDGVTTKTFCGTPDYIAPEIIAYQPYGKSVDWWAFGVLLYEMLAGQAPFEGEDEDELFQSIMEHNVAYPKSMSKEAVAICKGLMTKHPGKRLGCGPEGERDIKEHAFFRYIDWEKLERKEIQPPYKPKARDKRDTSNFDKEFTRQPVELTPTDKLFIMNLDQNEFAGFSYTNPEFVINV
outcome_measure: residual activity (%)

> print(dat)
                                 smiles.code    outcome.measure  assay.result
 1        NC(=O)Nc1sc(-c2ccc(F)cc2)cc1C(N)=O  residual activity            89
 2  NC(=O)c1cccc(-c2cc(Nc3ccc(OC(F)(F)F)cc3)ncn2)c1  residual activity            96
 3  O=C(CCCc1ccc(-c2ccccc2F)cc1)Nc1ccc(O)cc1  residual activity           101
 4  CC(C)(C)n1nc(Cc2cccc3ccccc23)c2c(N)ncnc21  residual activity           105
 5  COc1cc2c(cc1OC)-c1n[nH]c(Nc3cccc(F)c3)c1C2  residual activity           105
 6  Nc1ncnc2c1c(-c1ccc(Oc3ccccc3)cc1)cn2C1CCCC1  residual activity            91
 7         COc1cc2ncnc(Nc3cccc(Cl)c3)c2cc1OC  residual activity           108
 8  O=S(=O)(NCCNC/C=C/c1ccc(Br)cc1)c1cccc2cnccc12  residual activity            55
 9       CCCCc1c(-c2ccc(OC)cc2)[nH]c2nccnc12  residual activity           102
10  CC(C)c1nn(-c2c(Cl)cccc2Cl)c2nc(Cc3ccc(OCCO)cc3)[nH]c(=O)c12  residual activity            95
11          O=c1cc(N2CCOCC2)oc2c1ccc1ccccc12  residual activity            92
12  O=C1Nc2ccc(Cl)cc2/C1=C/c1cc(Cl)c(O)c(Cl)c1  residual activity            90
13         O=C(O)/C=C/c1cc(Br)c(Br)c(Br)c1Br  residual activity           101
14  O=C1NC(=O)C(c2cn(CCCn3ccnc3)c3ccccc23)=C1Nc1ccccc1  residual activity             6
15  COc1cc2nccc(Oc3ccc(NC(=S)NC(=O)c4ccccc4C)cc3)c2cc1OC  residual activity           101
16           Nc1ncnc2[nH]nc(Nc3ccc(F)cc3)c12  residual activity            99

The origin of these recorded values is ChEMBL document CHEMBL2218924.
